Tested on: A549/ATCC NSCLC
Assay Remarks: NCI-60 one-dose screen, 48 h (100 = growth as untreated, 0 = no growth, -100 = all killed)
Conditions: 10 µM unless noted
About 83,000 compounds went through this panel and 20% of them were active in at least one assay; those are over-represented in the sample as a whole.
Reported growth values follow for various compounds
Your answer is read as %, so omit the unit and give the number.

Observe how each entry below is paired with its result.
[
  {
    "Compound": "O=C(/C(=C/c1ccc([N+](=O)[O-])cc1)c1ccccc1)c1ccccc1",
    "Value Units": "%",
    "growth": 48.7
  },
  {
    "Compound": "Nc1nc(SCC2(CCl)COC2)c2[nH]cnc2n1",
    "Value Units": "%",
    "growth": 97.8
  },
  {
    "Compound": "COc1ccc(/C=N\\Nc2ccc([N+](=O)[O-])cn2)cc1OC",
    "Value Units": "%",
    "growth": 30.3
  },
  {
    "Compound": "CCC1(c2ccccc2)Oc2ccccc2-n2c(C#N)c3ccccc3c2C1=O (stereo unspecified)",
    "Value Units": "%",
    "growth": 93.6
  },
  {
    "Compound": "O=C(O)c1ccccc1C(=O)OC1CCCC2CCCC21 (stereo unspecified)",
    "Value Units": "%",
    "growth": 101
  }
]

API: the following record is the query input.
Quick one: growth for `CCOc1nc(-c2ccccc2)cc2c(O)c(-c3nnco3)[nH]c(=O)c12` ?
38.9
